Test: Single dose oral bioavailability and pharmacokinetic study in Sprague Dawley rats
Format: in vivo, Sprague Dawley rat
Settings: Sprague Dawley (Crl:CD(SD)BR), rat; male rats; plasma; mean; after single oral 30 mg/kg of Example 1; label = analyte
Could you please report measured Cmax for the items listed next?
Write the answer as a number in ng/mL, unit excluded.

Prompt: Please look up its Cmax: CN1CCN2c3c(cccc31)[C@@H]1CN(CCCC(=O)c3ccc(F)cc3)CC[C@@H]12
Completion: 4.85

Prompt: Quick one: CN1CCN2c3c(cccc31)[C@@H]1CN(CCCC(O)c3ccc(F)cc3)CC[C@@H]12 (stereo partly drawn) [Example 1]
Completion: 91.6

Prompt: Please answer likewise for O=C(CCCN1CC[C@H]2[C@@H](C1)c1cccc3c1N2CCN3)c1ccc(F)cc1
Completion: 5.84

###

Assay: Single dose oral bioavailability and pharmacokinetic study in Sprague Dawley rats
Format: in vivo, Sprague Dawley rat
Details: Sprague Dawley (Crl:CD(SD)BR), rat; male rats; plasma; mean; after single oral 30 mg/kg of Example 1; label = analyte
Give measured Tmax for each item. Keep answers brief.
Report as a plain number; the unit min is understood.

Prompt: What does the data say about its Tmax? Entry: CN1CCN2c3c(cccc31)[C@@H]1CN(CCCC(O)c3ccc(F)cc3)CC[C@@H]12 (stereo partly drawn)
Completion: 49.8

Prompt: Further, for O=C(CCCN1CC[C@H]2[C@@H](C1)c1cccc3c1N2CCN3)c1ccc(F)cc1 ?
Completion: 60

Prompt: Same for CN1CCN2c3c(cccc31)[C@@H]1CN(CCCC(=O)c3ccc(F)cc3)CC[C@@H]12
Completion: 45

###

Assignment: determine reported Tmax for the given molecules.
Assay: Single dose oral bioavailability and pharmacokinetic study in Sprague Dawley rats
Format: in vivo, Sprague Dawley rat
Conditions: Sprague Dawley (Crl:CD(SD)BR), rat; female rats; plasma; mean; after single oral 30 mg/kg of Example 1; label = analyte
Reply numerically in h, unit not repeated.

Prompt: # lookup: Tmax of O=C(CCCN1CC[C@H]2[C@@H](C1)c1cccc3c1N2CCN3)c1ccc(F)cc1
Completion: 5.33

Prompt: Moving on to CN1CCN2c3c(cccc31)[C@@H]1CN(CCCC(O)c3ccc(F)cc3)CC[C@@H]12 (stereo partly drawn)
Completion: 3.33

Prompt: Next: CN1CCN2c3c(cccc31)[C@@H]1CN(CCCC(=O)c3ccc(F)cc3)CC[C@@H]12
Completion: 1

###

Target: SERT (Homo sapiens, UniProt P31645)
Sequence (P31645 whole entry): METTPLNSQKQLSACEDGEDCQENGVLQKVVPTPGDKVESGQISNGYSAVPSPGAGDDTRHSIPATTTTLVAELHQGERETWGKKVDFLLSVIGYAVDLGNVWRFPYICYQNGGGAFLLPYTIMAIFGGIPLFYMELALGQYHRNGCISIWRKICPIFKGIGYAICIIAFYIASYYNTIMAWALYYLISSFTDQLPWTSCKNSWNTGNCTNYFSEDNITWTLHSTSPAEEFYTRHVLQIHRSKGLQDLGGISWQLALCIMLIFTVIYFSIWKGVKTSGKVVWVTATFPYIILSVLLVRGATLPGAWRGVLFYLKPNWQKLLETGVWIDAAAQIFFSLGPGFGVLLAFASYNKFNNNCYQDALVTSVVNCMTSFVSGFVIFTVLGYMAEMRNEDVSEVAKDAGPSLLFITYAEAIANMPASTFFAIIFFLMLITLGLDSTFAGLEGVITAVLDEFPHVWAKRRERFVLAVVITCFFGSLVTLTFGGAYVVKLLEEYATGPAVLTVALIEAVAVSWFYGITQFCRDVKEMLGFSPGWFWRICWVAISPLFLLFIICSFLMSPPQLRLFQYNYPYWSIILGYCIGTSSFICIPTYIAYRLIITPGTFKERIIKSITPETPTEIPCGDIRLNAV
reported-metric: pKi
Lab note: report pKi as minus log10 of the concentration in molar units, number only.

Prompt: Fill in: pKi of CN1CCN2c3c(cccc31)[C@@H]1CN(CCCC(O)c3ccc(F)cc3)CC[C@@H]12 (stereo partly shown) is ___
Completion: 7.15
